Listed next: entries and their corresponding EC50.
Target: WT STING (Homo sapiens, UniProt Q86WV6, H232R)
Experiment: 293T WT STING standard reporter assay
Assay type: cell-based
Design: host or cells: 293T (ATCC CRL-3216), stably transfected, with 4xISRE firefly luciferase reporter
Settings: 293T wtSTING-FL cells, ISRE firefly luciferase; no digitonin; 7 hours with compounds; 8-point curve
Description: Two complementary oligonucleotides of the sequence […] […] The medium was removed next day and three-fold serial dilutions of compounds in 100 μl medium were added to the cells. […] After 50 μl of the medium was removed, 30 μl of ONE-Glo™ Luciferase Assay System reagent (cat. #E6120, Promega, Madison, USA) was added to each well and luminescence was read on Synergy H1 (Biotek, Winooski, USA).
Sequence (Q86WV6 whole entry H232R): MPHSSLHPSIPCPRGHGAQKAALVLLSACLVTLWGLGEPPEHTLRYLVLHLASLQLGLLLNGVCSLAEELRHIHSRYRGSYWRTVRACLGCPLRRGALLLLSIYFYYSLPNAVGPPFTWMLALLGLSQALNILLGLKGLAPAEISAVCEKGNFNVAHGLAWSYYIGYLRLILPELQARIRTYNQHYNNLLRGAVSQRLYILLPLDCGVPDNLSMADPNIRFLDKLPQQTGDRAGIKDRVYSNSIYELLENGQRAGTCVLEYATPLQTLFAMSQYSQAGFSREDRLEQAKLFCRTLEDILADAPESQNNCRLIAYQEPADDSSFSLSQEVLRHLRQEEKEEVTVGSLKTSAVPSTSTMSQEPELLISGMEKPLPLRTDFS
Supply the numeric figure in nM, leaving out any unit text.

# Compound, EC50 / nM
records = [
    ("CC(C)(C)C(=O)OCOP1(=O)OC[C@H]2C[C@@H](n3cnc4c(N)ncnc43)C(F)C2OP(=O)(OCOC(=O)C(C)(C)C)OC[C@H]2C[C@@H](n3cnc4c(N)ncnc43)C(F)C2O1 (single isomer, unassigned) [Compound 138b]", 20),
]

Quick check: EC50 of CC(C)(C)C(=O)OCOP1(=O)OC[C@H]2O[C@@H](n3cnc4c(N)ncnc43)CC2OP(=O)(OCOC(=O)C(C)(C)C)OC[C@H]2C[C@@H](n3cnc4c(N)ncnc43)C(F)C2O1 (some centres unmarked) [Compound 139a] ?
3

====

Molecular target: WT STING (Homo sapiens, UniProt Q86WV6, H232R)
Assay: 293T WT STING standard reporter assay
Format: cell-based
Set-up: host or cells: 293T (ATCC CRL-3216), stably transfected, with 4xISRE firefly luciferase reporter
Conditions: 293T wtSTING-FL cells, ISRE firefly luciferase; no digitonin; 7 hours with compounds; 8-point curve
Listed next: entries and their corresponding pEC50.
Notebook: values listed as pEC50 are -log10 of the concentration (mol/L).

Example entries begin here.
# Compound, pEC50
data = [
    ("Nc1ncnc2c1ncn2[C@@H]1C[C@@H]2COP(=O)(S)OC3C(F)[C@H](n4cnc5c(N)ncnc54)O[C@@H]3COP(=O)(S)OC2C1F (single isomer, unassigned) [Compound 102b]", 6.15),
    ("Nc1nc2c(ncn2[C@@H]2O[C@@H]3COP(=O)(O)O[C@@H]4[C@H](O)[C@@H](COP(=O)(O)O[C@@H]2[C@@H]3O)O[C@H]4n2cnc3c(N)ncnc32)c(=O)[nH]1 [2′2′-cGAMP, reference compound]", 4.99),
]

# input for lookup
Quick check: pEC50 of Nc1ncnc2c1ncn2[C@@H]1C[C@@H]2COP(=O)(O)OC3C(F)[C@H](n4cnc5c(N)ncnc54)O[C@@H]3COP(=O)(O)OC2C1F (stereo partly drawn) [Compound 120] ?
5.72

====

Test system: peripheral blood mononuclear cells (PBMC)
Assay: Peripheral blood mononuclear cell (PBMC) assay
Assay type: cell-based
Conditions: PBMC, interferon-gamma level; 1 h with compounds, washed, 15 hour incubation; average of one to four donors; read-out: PBMC EC50 (μM) IFN-γ
Measured endpoint: EC50 (µM)
Supply the numeric figure in µM, leaving out any unit text.

# Compound, EC50, µM
measured = [
    ("Nc1nc2c(ncn2[C@@H]2C[C@@H]3COP(=O)(S)O[C@H]4[C@@H](F)[C@H](n5cnc6c(N)ncnc65)O[C@@H]4COP(=O)(S)O[C@H]3C2)c(=O)[nH]1 (single isomer, unassigned) [Compound 129d]", 23),
    ("CCC(C)(C)C(=O)OCOP1(=O)OC[C@H]2O[C@@H](n3cnc4c(N)ncnc43)C(F)C2OP(=O)(OCOC(=O)C(C)(C)CC)OC[C@H]2C[C@@H](n3cnc4c(N)ncnc43)C(F)C2O1 (some centres unmarked) [Compound 144b]", 0.05),
    ("Nc1ncnc2c1ncn2[C@@H]1C[C@@H]2COP(=O)(O)OC3C[C@H](n4cnc5c(N)ncnc54)O[C@@H]3COP(=O)(O)OC2C1F (some centres unmarked) [Compound 124]", 43),
    ("CC1(C(=O)OCOP2(=O)OC[C@H]3O[C@@H](n4cnc5c(N)ncnc54)[C@H](F)[C@@H]3OP(=O)(OCOC(=O)C3(C)CCCCC3)OC[C@H]3C[C@@H](n4cnc5c(N)ncnc54)[C@H](F)[C@@H]3O2)CCCCC1 (single isomer, unassigned) [Compound 145b]", 0.002),
]

# input for lookup
Quick check: EC50 of CC(C)OC(=O)OCOP1(=O)OC[C@H]2O[C@@H](n3cnc4c(N)ncnc43)C(F)C2OP(=O)(OCOC(=O)OC(C)C)OC[C@H]2C[C@@H](n3cnc4c(N)ncnc43)C(F)C2O1 (some centres unmarked) [Compound 143b] ?
0.15

====

Listed next: entries and their corresponding DSF ΔTm (° C.) WT STING.
Molecular target: WT STING (Homo sapiens, UniProt Q86WV6, H232R)
Assay: Differential scanning fluorimetry (DSF) with WT STING
Type: binding
Design: 8xHis (N, cleaved yes); SUMO (N, cleaved yes); made in house; host or cells: E. coli Rosetta-gami B (DE3)
Settings: thermal shift vs apoprotein; 150 μM CDN; truncated human WT STING 0.1 mg/ml
Sequence (Q86WV6 140-343 H232R): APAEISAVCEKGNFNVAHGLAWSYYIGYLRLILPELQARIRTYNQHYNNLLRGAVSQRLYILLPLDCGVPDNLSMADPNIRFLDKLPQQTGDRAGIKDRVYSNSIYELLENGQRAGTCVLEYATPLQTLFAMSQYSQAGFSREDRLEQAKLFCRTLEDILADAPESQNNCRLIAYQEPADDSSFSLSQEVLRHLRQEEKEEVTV
Supply the numeric figure in °C, leaving out any unit text.

# Compound, Value
data = [
    ("Nc1nc2c(ncn2[C@@H]2C[C@@H]3COP(=O)(O)OC4C(F)[C@H](n5cnc6c(N)ncnc65)O[C@@H]4COP(=O)(O)OC3C2O)c(=O)[nH]1 (single isomer, unassigned) [Compound 103]", 7.6),
]

Hello, I am looking for reported DSF ΔTm (° C.) WT STING with WT STING (Homo sapiens, UniProt Q86WV6, H232R) for Nc1nc2c(ncn2[C@@H]2C[C@@H]3COP(=O)(S)O[C@H]4[C@@H](F)[C@H](n5cnc6c(N)ncnc65)O[C@@H]4COP(=O)(S)O[C@H]3C2)c(=O)[nH]1 (single isomer, unassigned) [Compound 129c] . Could you help?
6.4

====

Target: WT STING (Homo sapiens, UniProt Q86WV6, H232R)
Assay: Digitonin assay using 293T wtSTING-FL reporter cells
Format: cell-based
Parameters: host or cells: 293T (ATCC CRL-3216), stably transfected, with 4xISRE firefly luciferase reporter
Details: 293T wtSTING-FL cells, ISRE firefly luciferase; compounds in Digitonin buffer 30 minutes, then 5 hours; 8-point curve
Listed next: entries and their corresponding EC50.
Supply the numeric figure in nM, leaving out any unit text.

# Molecule, EC50 / nM
records = [
    ("Nc1nc2c(ncn2[C@@H]2O[C@@H]3COP(=O)(O)OC4C(O)[C@H](n5cnc6c(N)ncnc65)C[C@@H]4COP(=O)(O)OC3C2F)c(=O)[nH]1 (single isomer, unassigned) [Compound 109]", 10),
    ("Nc1nc2c(ncn2[C@H]2CC3OP(=O)(O)OC[C@H]4C[C@@H](n5cnc6c(=O)[nH]c(N)nc65)C(O)C4OP(=O)(O)OC[C@H]3C2)c(=O)[nH]1 (stereo partly shown)", 1200),
    ("Nc1ncnc2c1ncn2[C@@H]1O[C@@H]2COP(=O)(O)O[C@H]3[C@@H](O)[C@H](n4cnc5c(N)ncnc54)O[C@@H]3COP(=O)(O)O[C@H]2[C@H]1O [3′3′c-di-AMP, reference compound]", 300),
]

Quick check: EC50 of Nc1nc2c(ncn2[C@@H]2C[C@@H]3COP(=O)(O)OC4C[C@H](n5cnc6c(N)ncnc65)O[C@@H]4COP(=O)(O)OC3C2O)c(=O)[nH]1 (stereo partly shown) ?
400

Repeat for the following molecule: Nc1nc2c(ncn2[C@@H]2O[C@@H]3COP(=O)(O)O[C@@H]4[C@H](O)[C@@H](COP(=O)(O)O[C@@H]2[C@@H]3O)O[C@H]4n2cnc3c(N)ncnc32)c(=O)[nH]1 [2′2′-cGAMP, reference compound]
30

Repeat for the following molecule: Nc1nc2c(ncn2[C@@H]2C[C@@H]3COP(=O)(O)OC4C(F)[C@H](n5cnc6c(=O)[nH]c(N)nc65)O[C@@H]4COP(=O)(O)OC3C2O)c(=O)[nH]1 (stereo partly shown)
1600

Repeat for the following molecule: Nc1nc2c(ncn2[C@H]2CC3OP(=O)(O)OC[C@H]4O[C@@H](n5cnc6c(N)ncnc65)C(O)C4OP(=O)(O)OC[C@H]3C2)c(=O)[nH]1 (stereo partly shown)
70

Repeat for the following molecule: Nc1ncnc2c1ncn2[C@@H]1C[C@@H]2COP(=O)(S)OC3C(F)[C@H](n4cnc5c(N)ncnc54)O[C@@H]3COP(=O)(S)OC2C1F (single isomer, unassigned) [Compound 102a]
110

Repeat for the following molecule: Nc1ncnc2c1ncn2[C@@H]1C[C@@H]2COP(=O)(O)OC3C(F)[C@H](n4cnc5c(N)ncnc54)O[C@@H]3COP(=O)(S)OC2C1F (single isomer, unassigned) [Compound 141a]
3000

Repeat for the following molecule: Nc1nc2c(ncn2[C@@H]2O[C@@H]3COP(=O)(S)O[C@@H]4[C@@H](COP(=O)(S)O[C@H]3[C@H]2F)C[C@@H](n2cnc3c(N)ncnc32)[C@@H]4F)c(=O)[nH]1 (single isomer, unassigned) [Compound 132a]
8
